Cited source: patent US20190030009A1

test: Cytotoxicity against HepG2; assay type: cell-based; conditions: human, HepG2 cells (ATCC HB-8065), 5 days exposure
# CC50 at 5 days values compiled below

{"molecule": "CCN(C(=O)c1ccn2ncc(-c3ccc(C(=O)NC)cc3)c2c1)c1ccc(C(F)(F)F)cn1 [Example 96]", "relational.operator": "=", "CC50 at 5 days, µM": 7.14}
{"molecule": "CNC(=O)c1ccc(-c2cnn3ccc(C(=O)N(c4ccc(F)cn4)C(C)C)cc23)cn1 [Example 156]", "relational.operator": ">", "CC50 at 5 days, µM": 50}
{"molecule": "CNC(=O)c1ccc(-c2cnn3ccc(C(=O)N(C)c4ccc(Cl)cc4)cc23)cc1 [Example 99]", "relational.operator": "=", "CC50 at 5 days, µM": 6.51}
{"molecule": "CN(C)CCNC(=O)c1ccc(-c2cnn3ccc(C(=O)N(C)c4ccc(C#N)cn4)cc23)cc1 [Example 115]", "relational.operator": "=", "CC50 at 5 days, µM": 2.7}
